- Measurement target: Amine oxidase [flavin-containing] B (Bos taurus)
- Experiment: Inhibitory activity against Monoamine Oxidase B of Bovine liver in competitive inhibition assay at 25 degree C (pH=7.4)
Can you tell me pKi for the items I'm about to list?
Recall that pKi is obtained by taking minus log10 of the concentration measured in molar.

// field: pKi; key: C[C@@H](N)Cc1ccccc1 ; value = 3.42

// field: pKi; key: CN[C@H](C)c1ccccc1 ; value = 3.20

// field: pKi; key: CN[C@H]1CCCc2ccccc21 ; value = 5.85

// field: pKi; key: CN[C@@H]1CCCc2ccccc21 ; value = 4.92

// field: pKi; key: C[C@H](N)Cc1ccccc1 ; value = 3.52

// field: pKi; key: CN[C@@H](C)c1ccccc1 ; value = 2.80

// field: pKi; key: C[C@H](N)c1ccccc1 ; value = 3.28

// field: pKi; key: CN[C@@H](C)Cc1ccccc1 ; value = 3.26

// field: pKi; key: CN[C@H](C)Cc1ccccc1 ; value = 3.10

###

- Measurement target: Amine oxidase [flavin-containing] B (Bos taurus, UniProt P56560)
- Experiment: Kinetic parameter for the time dependent inhibition of Bovine liver Monoamine Oxidase B at 25 degrees C (pH= 7.4).
- Setup conditions: cattle
Can you tell me k2 for the items I'm about to list?
Form entry: value (min⁻¹) — number only.

// field: k2; key: CC=C=CCN(C)[C@@H]1CCCc2ccccc21 (stereo in doubt) ; value = 0.8

// field: k2; key: CC=C=CCN(C)[C@@H]1CCCc2ccccc21 (mixture of isomers) ; value = 0.13

// field: k2; key: CC=C=CCN(C)Cc1ccccc1.O=C(O)C(=O)O (stereo in doubt; 2 (R)) ; value = 1

// field: k2; key: CC=C=CCN(C)CCc1ccccc1 (stereo in doubt; 4 (R)) ; value = 0.99

// field: k2; key: CC=C=CCN(C)[C@@H](C)c1ccccc1 (mixture of isomers) ; value = 0.012

// field: k2; key: CC=C=CCN(C)Cc1ccccc1.O=C(O)C(=O)O (stereo in doubt; 2 (S)) ; value = 0.16

// field: k2; key: CC=C=CCN(C)[C@H](C)c1ccccc1 (stereo in doubt) ; value = 0.61

// field: k2; key: CC=C=CCN(C)C (stereo in doubt; 1 (S)) ; value = 0.29

// field: k2; key: CC=C=CCN(C)[C@H]1CCCc2ccccc21 (stereo in doubt) ; value = 0.0006

// field: k2; key: CC=C=CCN(C)[C@H]1CCCc2ccccc21 (mixture of isomers) ; value = 0.012

// field: k2; key: CC=C=CCN(C)CCc1ccccc1 (stereo in doubt; 4 (S)) ; value = 0.13

###

- Measurement target: Amine oxidase [flavin-containing] B (Bos taurus, UniProt P56560)
- Sequence (P56560 whole entry): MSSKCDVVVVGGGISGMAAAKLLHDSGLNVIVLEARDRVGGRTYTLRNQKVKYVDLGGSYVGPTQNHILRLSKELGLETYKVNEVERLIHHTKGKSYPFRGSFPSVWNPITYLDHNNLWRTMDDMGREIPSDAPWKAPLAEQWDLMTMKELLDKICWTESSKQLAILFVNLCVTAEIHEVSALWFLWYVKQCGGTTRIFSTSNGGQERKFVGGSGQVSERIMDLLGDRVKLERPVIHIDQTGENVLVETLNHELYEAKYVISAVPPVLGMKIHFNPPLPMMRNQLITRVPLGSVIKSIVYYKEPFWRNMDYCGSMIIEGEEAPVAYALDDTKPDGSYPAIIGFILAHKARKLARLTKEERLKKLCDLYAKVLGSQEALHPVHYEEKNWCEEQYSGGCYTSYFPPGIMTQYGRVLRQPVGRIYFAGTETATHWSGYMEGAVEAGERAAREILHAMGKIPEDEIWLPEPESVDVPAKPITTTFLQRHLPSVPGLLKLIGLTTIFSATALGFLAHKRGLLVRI
- Experiment: Kinetic parameter for the time dependent inhibition of Bovine liver Monoamine Oxidase B at 25 degrees C (pH= 7.4).
- Setup conditions: cattle, read-out: k2 (converted)
Observable: kinact (s⁻¹)
Form entry: value (s⁻¹) — number only.

// field: kinact; key: CC=C=CCN(C)C (stereo in doubt; 1 (R)) ; value = 0.00367

// field: kinact; key: CC=C=CCN(C)C[C@H](C)c1ccccc1 (mixture of isomers) ; value = 0.00015

// field: kinact; key: CC=C=CCN(C)C[C@@H](C)c1ccccc1 (mixture of isomers) ; value = 0.000117

// field: kinact; key: CC=C=CCN(C)[C@@H](C)c1ccccc1 (stereo in doubt) ; value = 0.000117

// field: kinact; key: CC=C=CCN(C)[C@H](C)c1ccccc1 (mixture of isomers) ; value = 0.00733
